- testedSystem: UniProtKB P43235
- Sequence (P43235 whole entry): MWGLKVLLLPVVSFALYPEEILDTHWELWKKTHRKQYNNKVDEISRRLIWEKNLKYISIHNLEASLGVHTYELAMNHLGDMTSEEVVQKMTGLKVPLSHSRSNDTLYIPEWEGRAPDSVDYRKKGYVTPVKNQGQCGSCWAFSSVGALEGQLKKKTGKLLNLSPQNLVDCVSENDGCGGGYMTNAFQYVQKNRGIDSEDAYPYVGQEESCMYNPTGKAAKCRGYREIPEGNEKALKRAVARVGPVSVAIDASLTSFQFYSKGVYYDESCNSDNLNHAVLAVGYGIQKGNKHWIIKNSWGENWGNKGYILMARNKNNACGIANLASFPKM
- protocolDetails: Competitive inhibition of recombinant human cathepsin K expressed in Pichia pastoris using Z-FR-MCA as substrate by Dixon plot method
In this section we review reported Ki values for a set of compounds.
Kindly answer with a numeric value in µM, unit omitted.

CC(=O)N[C@@H](CC(C)C)C(=O)N[C@@H](CC(C)C)C(=O)N[C@H]1CCCN2C(N)=NC(=N)N[C@@H]12: 44

Attention now turns to another entry.
(Q) # return recorded Ki for input CC(=O)N[C@@H](CC(C)C)C(=O)N[C@@H](CC(C)C)C(=O)N[C@H](C=O)CCCNC(=N)N
(A) 0.024
